biological target: Histone deacetylase 1 (Homo sapiens, UniProt Q13547); conditions: Sf9, dose 100.0 nM, time 15.0 min
Sequence (Q13547 whole entry): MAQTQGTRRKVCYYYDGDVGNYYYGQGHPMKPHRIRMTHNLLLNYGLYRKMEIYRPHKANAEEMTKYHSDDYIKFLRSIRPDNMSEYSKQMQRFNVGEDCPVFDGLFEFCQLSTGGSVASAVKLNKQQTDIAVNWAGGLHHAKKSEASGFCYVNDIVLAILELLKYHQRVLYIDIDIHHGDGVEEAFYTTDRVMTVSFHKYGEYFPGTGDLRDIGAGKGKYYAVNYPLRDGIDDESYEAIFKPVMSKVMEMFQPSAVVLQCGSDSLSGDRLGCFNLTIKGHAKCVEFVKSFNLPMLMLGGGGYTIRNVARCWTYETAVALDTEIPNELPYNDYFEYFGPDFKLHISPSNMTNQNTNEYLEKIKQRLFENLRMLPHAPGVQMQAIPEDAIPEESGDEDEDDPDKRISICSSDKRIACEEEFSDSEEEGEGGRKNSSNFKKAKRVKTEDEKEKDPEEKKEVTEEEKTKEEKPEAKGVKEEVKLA
endpoint: inhibition (%)

Some entries whose results are on file:
Entry under review: "CC(C)S(=O)(=O)c1ccccc1Nc1nc(Nc2ccc(NC(=O)CCCCCCC(=O)NO)cc2)ncc1F" . Reported inhibition? 94

Entry under review: "CC(C)S(=O)(=O)c1ccccc1Nc1nc(Nc2cccc(C(=O)NCCCCCCC(=O)NO)c2)ncc1Cl" . Reported inhibition? 84

Entry under review: "O=C(CCCCCCC(=O)Nc1ccc(Nc2ncc(Cl)c(Nc3ccccc3)n2)cc1)NO" . Reported inhibition? 99

A: CC(C)S(=O)(=O)c1ccccc1Nc1nc(Nc2ccc(/C=C/C(=O)NO)cc2)ncc1Cl
B: Cc1ccccc1Nc1nc(Nc2ccc(NC(=O)CCCCCCC(=O)NO)cc2)ncc1Cl
C: Cc1c(Nc2ncc(Cl)c(Nc3ccccc3S(=O)(=O)C(C)C)n2)cccc1C(=O)NCCCCCC(=O)NO
Rank by inhibition (largest to smallest). Your answer should be the labels, listed in the requested order. B, C, A
(B: 99%, C: 49%, A: 3%)
